Biological target: Peroxisome proliferator-activated receptor γ (Homo sapiens, UniProt P37231)
Sequence (P37231 238-505 limits assumed): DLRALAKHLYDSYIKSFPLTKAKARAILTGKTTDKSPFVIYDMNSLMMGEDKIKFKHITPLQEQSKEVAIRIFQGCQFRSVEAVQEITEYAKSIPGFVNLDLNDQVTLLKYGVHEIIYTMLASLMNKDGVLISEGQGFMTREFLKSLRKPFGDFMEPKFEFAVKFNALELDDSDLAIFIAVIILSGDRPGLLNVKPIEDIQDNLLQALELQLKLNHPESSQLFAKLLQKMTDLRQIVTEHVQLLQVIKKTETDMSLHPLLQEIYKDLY
Assay: cell-based
Settings: 10% of maximum effect of rosiglitazone
Assay metric: EC10, PPARγ (M)

CC(C)(c1ccc(O)c(-c2ccccc2)c1)c1ccc(O)c(-c2ccccc2)c1 [BPPH, 2,2-Bis(2-hydroxy-5-biphenylyl)propane] = 5.55 × 10^–7 M
Cc1cc(Cc2cc(C)c(O)c(C)c2)cc(C)c1O [TMBPF, Bis(3,5-dimethyl-4-hydroxyphenyl)methane] = 3.29 × 10^–7 M
O=S(=O)(c1ccc(O)cc1)c1ccc(OCc2ccccc2)cc1 [BPS-MPE, 4-[4-(benzyloxy)benzenesulfonyl]phenol] = 2.35 × 10^–7 M
Cc1ccc(S(=O)(=O)NC(=O)Nc2cccc(OS(=O)(=O)c3ccc(C)cc3)c2)cc1 [Pergafast] = 6.71 × 10^–7 M
CC(C)c1cc(C(C)(C)c2ccc(O)c(C(C)C)c2)ccc1O [BPG] = 1.17 × 10^–7 M
C=CCOc1ccc(S(=O)(=O)c2ccc(O)cc2)cc1 [BPS-MAE, 4-[[4-(Allyloxy)phenyl]sulfonyl]phenol] = 5.57 × 10^–7 M
Cc1ccc(S(=O)(=O)NC(=O)Nc2ccc(Cc3ccc(NC(=O)NS(=O)(=O)c4ccc(C)cc4)cc3)cc2)cc1 [BTUM] = 2.56 × 10^–7 M
Oc1ccc(Sc2ccc(O)cc2)cc1 [BPT, 4,4'-Thiodiphenol] = 9.61 × 10^–7 M
O=C(OCc1ccccc1)c1ccc(O)cc1 [BzPB, Benzyl 4-hydroxybenzoate] = 2.04 × 10^–6 M

----------
System: HEK293T (ERα)
Conditions: Bioassay ERα; cytotoxicity; dosing range high; log-logistic model fit
Let's look at some compounds and their measured logIC10.
Assay metric: logIC10

Oc1ccc(C(c2ccc(O)cc2)(C(F)(F)F)C(F)(F)F)cc1 = -5.02
COC(=O)C(c1ccc(O)cc1)c1ccc(O)cc1 [Bz, Methyl bis(4-hydroxyphenyl)acetate] = -3.63
O=S(=O)(c1ccc(O)cc1)c1ccc(O)cc1 = -3.33
CCC(C)(c1ccc(O)cc1)c1ccc(O)cc1 = -4.68

----------
System: MCF7 (ARE/MMP)
Details: cytotoxicity, MCF7, ARE readout
IC10, MCF7, ARE of 90 µM or higher: Y. Under 90 µM: N.

CC(C)(c1ccc(O)c(-c2ccccc2)c1)c1ccc(O)c(-c2ccccc2)c1 [BPPH, 2,2-Bis(2-hydroxy-5-biphenylyl)propane] = N
CC(c1ccc(O)cc1)c1ccc(O)cc1 = N
O=S(=O)(c1ccc(O)cc1)c1ccc(O)cc1 = Y
Oc1ccc(Sc2ccc(O)cc2)cc1 = Y

----------
Target: Estrogen Receptor ERα (Homo sapiens)
Sequence (P03372 311-547 limits assumed): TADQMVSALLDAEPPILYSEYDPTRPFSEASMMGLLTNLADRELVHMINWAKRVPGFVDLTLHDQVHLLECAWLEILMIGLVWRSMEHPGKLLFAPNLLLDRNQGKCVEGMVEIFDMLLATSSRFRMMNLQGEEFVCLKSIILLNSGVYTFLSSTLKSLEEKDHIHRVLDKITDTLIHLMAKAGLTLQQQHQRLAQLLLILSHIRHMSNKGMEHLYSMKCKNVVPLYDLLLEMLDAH
Experiment: cell-based
Details: EC10,BPA/EC10,BPx
Catalogue of compounds with associated REPBPA,ERα (relative effect potency in relation to BPA)
Assay metric: REPBPA,ERα (relative effect potency in relation to BPA)

O=S(=O)(c1ccc(O)cc1)c1ccccc1O [2,4-BPS, 2,4'-Dihydroxydiphenyl sulfone] = 0.019
CC(C)Oc1ccc(S(=O)(=O)c2ccc(O)cc2)cc1 = 0.033
CCC(C)(c1ccc(O)cc1)c1ccc(O)cc1 = 3

----------
Test: Acidity constant (pKa) measurement, Sirius T3 UV-metric, and speciation at pH 7.4
Conditions: phosphate buffer with […] KCl, Sirius T3 titrator, pKa (Acid), second pKa column; experimental, this study
Catalogue of pKa readings, one per entry.
Assay metric: pKa

Cc1ccc(S(=O)(=O)NC(=O)Nc2ccc(Cc3ccc(NC(=O)NS(=O)(=O)c4ccc(C)cc4)cc3)cc2)cc1 = 5.07
Oc1ccc(Sc2ccc(O)cc2)cc1 = 9.54
CC(C)(c1cc(Br)c(O)c(Br)c1)c1cc(Br)c(O)c(Br)c1 = 7.24
COC(=O)C(c1ccc(O)cc1)c1ccc(O)cc1 [Bz, Methyl bis(4-hydroxyphenyl)acetate] = 8.34

----------
Here, each record is paired with measured log(1/EC10) PPARγ data.
Target: Peroxisome proliferator-activated receptor γ (Homo sapiens, UniProt P37231)
Test: cell-based
Details: input of the ToxPi score, values up to 1.00
Assay metric: log(1/EC10) PPARγ

CC(C)(c1cc(Cl)c(O)c(Cl)c1)c1cc(Cl)c(O)c(Cl)c1 = 0.96
CC(C)(c1ccc(O)c(-c2ccccc2)c1)c1ccc(O)c(-c2ccccc2)c1 [BPPH, 2,2-Bis(2-hydroxy-5-biphenylyl)propane] = 0.88
O=S(=O)(c1ccc(O)cc1)c1ccc(OCc2ccccc2)cc1 [BPS-MPE, 4-[4-(benzyloxy)benzenesulfonyl]phenol] = 0.94
Cc1cc(Cc2cc(C)c(O)c(C)c2)cc(C)c1O [TMBPF, Bis(3,5-dimethyl-4-hydroxyphenyl)methane] = 0.92

----------
Below, each entry is listed with its recorded Specificity ratio (SRcytotoxicity) SRNOI.
System: SH-SY5Y cells
Assay: cells
Conditions: against experimental cytotoxicity
Assay metric: Specificity ratio (SRcytotoxicity) SRNOI

CCC(C)(c1ccc(O)cc1)c1ccc(O)cc1 [BPB, 4,4'-(Butane-2,2-diyl)diphenol] = 5.98
Cc1cc(Cc2cc(C)c(O)c(C)c2)cc(C)c1O [TMBPF, Bis(3,5-dimethyl-4-hydroxyphenyl)methane] = 2.97
CC(C)(c1ccc(OCC2CO2)cc1)c1ccc(OCC2CO2)cc1 (centres unmarked) [BADGE, Bisphenol A diglycidyl ether] = 1.50
Cc1ccc(S(=O)(=O)NC(=O)Nc2cccc(OS(=O)(=O)c3ccc(C)cc3)c2)cc1 [Pergafast] = 3.95
CC(C)Oc1ccc(S(=O)(=O)c2ccc(O)cc2)cc1 [D8, 4-((4-Isopropoxyphenyl)sulfonyl)phenol] = 2.56

----------
System: Tox21 assays
Test: Re-evaluated Tox21 data (Adamovsky et al.), REPBPA and SRbaseline;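 note: published Tox21 results reanalysed with a revised model predicting baseline toxicity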
Conditions: TOX21_CAR_Agonist; Relative Effect Potency
REPBPA listing for selected compounds.
Assay metric: REPBPA

Oc1ccc(C(c2ccc(O)cc2)(C(F)(F)F)C(F)(F)F)cc1 = 0.26
CC(c1ccc(O)cc1)c1ccc(O)cc1 = 0.13
CC(C)(c1ccc(O)cc1)c1ccc(O)cc1 [BPA, 4,4'-(Propane-2,2-diyl)diphenol, reference compound] = 1.00
CCC(C)(c1ccc(O)cc1)c1ccc(O)cc1 = 1.20

----------
Test system: HEK293T (ERα)
Details: Bioassay ERα; cytotoxicity; dosing range all; linear model fit
Assay metric: IC10, linear

CC(C)(c1cc(Cl)c(O)c(Cl)c1)c1cc(Cl)c(O)c(Cl)c1 [TCBPA, 2,2',6,6'-Tetrachlorobisphenol A] = 1.51E-05
Cc1ccc(S(=O)(=O)NC(=O)Nc2cccc(OS(=O)(=O)c3ccc(C)cc3)c2)cc1 [Pergafast] = 1.21E-05
O=C(OCc1ccccc1)c1ccc(O)cc1 [BzPB, Benzyl 4-hydroxybenzoate] = 4.80E-05

----------
Assay: Acidity constant (pKa) measurement, Sirius T3 UV-metric, and speciation at pH 7.4
Settings: from experimental pKa
Assay metric: Double negative form (pH = 7.40) (%)

Oc1ccc(Cc2ccc(O)cc2)cc1 [BPF, Bis(4-hydroxyphenyl)methane] = 0.000993
CC(c1ccccc1)(c1ccc(O)cc1)c1ccc(O)cc1 = 0.00503
CC(c1ccc(O)cc1)c1ccc(O)cc1 = 0.00576
CC(C)(c1cc(Br)c(O)c(Br)c1)c1cc(Br)c(O)c(Br)c1 = 56
Oc1ccc(Sc2ccc(O)cc2)cc1 = 0.0324
CC(C)(c1ccc(O)c(-c2ccccc2)c1)c1ccc(O)c(-c2ccccc2)c1 [BPPH, 2,2-Bis(2-hydroxy-5-biphenylyl)propane] = 0.000533
Cc1ccc(S(=O)(=O)NC(=O)Nc2ccc(Cc3ccc(NC(=O)NS(=O)(=O)c4ccc(C)cc4)cc3)cc2)cc1 = 99.53
COC(=O)C(c1ccc(O)cc1)c1ccc(O)cc1 [Bz, Methyl bis(4-hydroxyphenyl)acetate] = 3
CCC(C)(c1ccc(O)cc1)c1ccc(O)cc1 = 0.000865
Oc1ccc(C(c2ccc(O)cc2)(C(F)(F)F)C(F)(F)F)cc1 = 0.0417

----------
This section presents compounds with their documented Toxic ratio (TR) TRNOI values.
Test system: SH-SY5Y cells
Conditions: against baseline cytotoxicity
Assay metric: Toxic ratio (TR) TRNOI

COC(=O)C(c1ccc(O)cc1)c1ccc(O)cc1 [Bz, Methyl bis(4-hydroxyphenyl)acetate] = 0.85
Cc1ccc(S(=O)(=O)NC(=O)Nc2cccc(OS(=O)(=O)c3ccc(C)cc3)c2)cc1 [Pergafast] = 2.23
CC(C)Oc1ccc(S(=O)(=O)c2ccc(O)cc2)cc1 [D8, 4-((4-Isopropoxyphenyl)sulfonyl)phenol] = 0.22
CC(C)(c1ccc(O)c(-c2ccccc2)c1)c1ccc(O)c(-c2ccccc2)c1 [BPPH, 2,2-Bis(2-hydroxy-5-biphenylyl)propane] = 0.08
O=C(OCc1ccccc1)c1ccc(O)cc1 [BzPB, Benzyl 4-hydroxybenzoate] = 0.07
Cc1cc(Cc2cc(C)c(O)c(C)c2)cc(C)c1O [TMBPF, Bis(3,5-dimethyl-4-hydroxyphenyl)methane] = 0.73
CC(C)c1cc(C(C)(C)c2ccc(O)c(C(C)C)c2)ccc1O [BPG] = 0.08
CC(C)(c1ccc(O)cc1)c1ccc(O)cc1 [BPA, 4,4'-(Propane-2,2-diyl)diphenol, reference compound] = 0.0846
CC(C)(c1ccc(OCC2CO2)cc1)c1ccc(OCC2CO2)cc1 (stereo not shown) [BADGE, Bisphenol A diglycidyl ether] = 0.32
CCC(C)(c1ccc(O)cc1)c1ccc(O)cc1 [BPB, 4,4'-(Butane-2,2-diyl)diphenol] = 0.10
